- Test system: NCI-H23 lung
- protocol: NCI tumour cell line growth inhibition, 48 h
quantity-kind: TGI

compound: O=C(Nc1ccccc1)N(C1=NCC(CI)S1)c1ccc(F)c(F)c1 (configuration not stated)
TGI: > 100 µM
//
compound: Cn1ccnc1CCc1c(Cl)cccc1Cl
TGI: > 100 µM
//
compound: CC(N=NNc1ccc(-c2nc3ccccc3[nH]2)cc1)C(=O)O (configuration not stated)
TGI: > 100 µM
//
compound: Cc1nc(C(N)=O)c(N)n1CCN1CCN(C(=O)CCCCCCCCCCNC2N=CNc3nc[nH]c32)CC1 (configuration not stated)
TGI: > 100 µM
//
compound: CC1=NNC(=O)C1C1C(=O)NN=C(c2c[nH]c3ccccc23)C1Br (configuration not stated)
TGI: > 100 µM
//
compound: COc1ccc2c(c1)C(=O)/C(=C/c1cccc(OCC(=O)c3ccccc3)c1)CC2
TGI: > 100 µM

The reported TGI of the compound CNC(=S)Nc1ccc(OC)c2ccccc12 was > 10 µM

The recorded TGI for entry Cc1ccc2nc(SCC(=O)N=Nc3c(O)[nH]c4ccccc34)n(-c3ccccc3)c(=O)c2c1 equals 33.1 µM

Query Cc1c(OC(C)C(=O)O)ccc2c(-c3ccccc3)cc(=O)oc12 (configuration not stated) yields TGI of > 100 µM

Briefly, TGI measured for O=C(Nc1ccc(N2C(=O)CSC2c2ccccc2O)cc1)c1ccc(N2C(=O)CSC2c2ccccc2O)cc1 (configuration not stated) : > 100 µM

The reported TGI of the compound COc1cc2c(c3c1c(=O)c1ccccc1n3C)C=CC1(CCCC1)O2 was 28.6 µM

For O=[N+]([O-])c1ccccc1OCCOc1ccccc1[N+](=O)[O-] the compound record lists TGI as > 100 µM

// sample Clc1ccc(-c2cn3ccnc3c(-c3ccc(Cl)cc3)n2)cc1 , its TGI was 80.1 µM

Lab book: TGI of COc1ccc(-c2noc(C(=O)O)c2-c2cc(OC)c(OC)c(OC)c2)cc1 noted as > 100 µM

TGI recorded for this compound, CN1N=CSC12C(=O)N(c1ccccc1)C(=O)N2c1ccccc1 (configuration not stated) , is > 100 µM

compound N#CC(N)=Nc1ccccc1 , TGI observed: > 100 µM

CC(C)/C(Cl)=N/OC(=O)Nc1ccc(Br)cc1 yielded TGI of 26.5 µM

Kindly note the recorded TGI for O=[N+]([O-])c1ccccc1N=Nc1c(O)[nH]c2cccc(C(F)(F)F)c12 , which is 88 µM
